These data points were gathered from ChEMBL document CHEMBL5321284.

Item-by-item account of Activity
Molecular target: von Hippel-Lindau disease tumor suppressor/1-phosphatidylinositol 3-phosphate 5-kinase (Homo sapiens) (UniProt Q9Y2I7+P40337)
Sequence (P40337 whole entry partner): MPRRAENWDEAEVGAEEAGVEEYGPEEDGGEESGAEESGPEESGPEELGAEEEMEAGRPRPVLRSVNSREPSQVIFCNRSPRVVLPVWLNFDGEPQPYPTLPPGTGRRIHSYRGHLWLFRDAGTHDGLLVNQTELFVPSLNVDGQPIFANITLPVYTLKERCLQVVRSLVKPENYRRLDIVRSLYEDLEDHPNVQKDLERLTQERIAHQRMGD
Sequence (Q9Y2I7 2-2098 limits assumed): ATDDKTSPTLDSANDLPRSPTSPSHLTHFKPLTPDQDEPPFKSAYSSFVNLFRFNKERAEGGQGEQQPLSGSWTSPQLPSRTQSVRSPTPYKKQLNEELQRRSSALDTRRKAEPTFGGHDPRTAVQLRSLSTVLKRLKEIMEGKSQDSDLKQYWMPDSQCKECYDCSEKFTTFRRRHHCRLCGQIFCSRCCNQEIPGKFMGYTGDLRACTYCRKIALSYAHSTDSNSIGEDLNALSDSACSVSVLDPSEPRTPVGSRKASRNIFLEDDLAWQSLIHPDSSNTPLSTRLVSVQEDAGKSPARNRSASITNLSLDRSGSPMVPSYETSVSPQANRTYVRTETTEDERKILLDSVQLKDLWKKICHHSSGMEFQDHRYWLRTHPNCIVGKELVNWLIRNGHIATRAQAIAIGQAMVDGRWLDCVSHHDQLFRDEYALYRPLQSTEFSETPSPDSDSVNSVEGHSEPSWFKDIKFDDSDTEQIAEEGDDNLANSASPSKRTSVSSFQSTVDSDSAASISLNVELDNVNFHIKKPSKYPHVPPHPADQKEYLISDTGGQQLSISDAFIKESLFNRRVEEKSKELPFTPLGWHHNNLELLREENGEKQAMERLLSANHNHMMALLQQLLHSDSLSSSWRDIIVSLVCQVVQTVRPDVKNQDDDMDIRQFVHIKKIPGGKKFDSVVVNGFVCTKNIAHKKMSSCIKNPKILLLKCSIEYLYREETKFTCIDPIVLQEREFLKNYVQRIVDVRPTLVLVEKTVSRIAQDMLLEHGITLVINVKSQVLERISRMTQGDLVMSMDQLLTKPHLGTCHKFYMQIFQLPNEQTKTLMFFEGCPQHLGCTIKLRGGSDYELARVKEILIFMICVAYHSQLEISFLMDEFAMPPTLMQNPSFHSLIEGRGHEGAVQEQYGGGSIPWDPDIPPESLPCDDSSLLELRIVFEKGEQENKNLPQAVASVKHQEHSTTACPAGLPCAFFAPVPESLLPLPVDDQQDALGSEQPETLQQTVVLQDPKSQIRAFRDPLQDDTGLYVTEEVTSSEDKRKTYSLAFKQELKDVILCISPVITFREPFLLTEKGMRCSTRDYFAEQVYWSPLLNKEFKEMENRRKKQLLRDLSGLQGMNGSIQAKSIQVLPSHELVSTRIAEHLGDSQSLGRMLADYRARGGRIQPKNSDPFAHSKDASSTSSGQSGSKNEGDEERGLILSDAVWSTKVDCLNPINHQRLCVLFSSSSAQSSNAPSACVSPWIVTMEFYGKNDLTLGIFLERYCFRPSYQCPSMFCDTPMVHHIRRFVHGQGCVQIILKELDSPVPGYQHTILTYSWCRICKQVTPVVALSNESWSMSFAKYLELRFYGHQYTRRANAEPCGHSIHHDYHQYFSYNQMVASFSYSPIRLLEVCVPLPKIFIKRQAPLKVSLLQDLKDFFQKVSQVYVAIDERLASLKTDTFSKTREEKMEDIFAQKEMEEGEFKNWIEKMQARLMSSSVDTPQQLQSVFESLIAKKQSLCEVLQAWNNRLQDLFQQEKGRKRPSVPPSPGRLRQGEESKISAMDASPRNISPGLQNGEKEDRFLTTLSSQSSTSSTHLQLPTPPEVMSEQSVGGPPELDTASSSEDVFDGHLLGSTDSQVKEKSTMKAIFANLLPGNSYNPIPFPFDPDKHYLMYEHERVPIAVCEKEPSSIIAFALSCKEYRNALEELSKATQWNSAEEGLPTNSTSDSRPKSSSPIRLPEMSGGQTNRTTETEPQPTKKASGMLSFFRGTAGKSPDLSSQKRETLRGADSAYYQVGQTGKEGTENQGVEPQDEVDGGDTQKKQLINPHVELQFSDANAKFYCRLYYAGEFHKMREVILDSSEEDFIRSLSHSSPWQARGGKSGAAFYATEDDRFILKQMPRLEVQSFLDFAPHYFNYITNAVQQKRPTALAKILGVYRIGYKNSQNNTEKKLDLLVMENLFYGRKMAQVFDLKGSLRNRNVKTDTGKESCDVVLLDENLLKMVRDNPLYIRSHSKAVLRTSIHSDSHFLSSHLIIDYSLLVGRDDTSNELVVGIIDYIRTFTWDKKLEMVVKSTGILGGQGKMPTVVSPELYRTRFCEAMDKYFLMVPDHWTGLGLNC
Experiment: PROTAC activity at VHL/PIKfyve in human VCaP cells assessed as induction of PIKfyve degradation at 0.1 uM incubated for 24 hrs by immunoblot analysis
Format: cell-based
The figure you give is taken to be in %; do not add the unit.

In the examples that follow, each entry is paired with its recorded Activity.
1. Cc1cccc(/C=N/Nc2cc(N3CCOCC3)nc(OCCNC(=O)CCCCCCCCCCC(=O)N[C@H](C(=O)N3C[C@H](O)C[C@H]3C(=O)NCc3ccc(-c4scnc4C)cc3)C(C)(C)C)n2)c1	67
2. Cc1cccc(/C=N/Nc2cc(N3CCOCC3)nc(OCCc3ccc(NC(=O)CCCCC(=O)N[C@H](C(=O)N4C[C@H](O)C[C@H]4C(=O)NCc4ccc(-c5scnc5C)cc4)C(C)(C)C)cc3)n2)c1	97
3. Cc1cccc(/C=N/Nc2cc(N3CCOCC3)nc(OCCc3ccc(NC(=O)CCCCCCC(=O)N[C@H](C(=O)N4C[C@H](O)C[C@H]4C(=O)NCc4ccc(-c5scnc5C)cc4)C(C)(C)C)cc3)n2)c1	26
4. Cc1cccc(/C=N/Nc2cc(N3CCOCC3)nc(OCCNC(=O)CCCCCCC(=O)N[C@H](C(=O)N3C[C@H](O)C[C@H]3C(=O)NCc3ccc(-c4scnc4C)cc3)C(C)(C)C)n2)c1	0

Please turn your attention to the following entry.
Q. Request the reported Activity associated with `Cc1cccc(/C=N/Nc2cc(N3CCOCC3)nc(OCCNC(=O)CCCC(=O)N[C@H](C(=O)N3C[C@H](O)C[C@H]3C(=O)NCc3ccc(-c4scnc4C)cc3)C(C)(C)C)n2)c1`
A. 0

###

Biological target: von Hippel-Lindau disease tumor suppressor/1-phosphatidylinositol 3-phosphate 5-kinase (Homo sapiens) (UniProt Q9Y2I7+P40337)
Assay: PROTAC activity at VHL/PIKfyve in human VCaP cells assessed as induction of PIKfyve degradation at 0.1 uM incubated for 24 hrs by immunoblot analysis
Assay type: cell-based
Item-by-item account of Activity
The figure you give is taken to be in %; do not add the unit.

In the examples that follow, each entry is paired with its recorded Activity.
1) Cc1cccc(/C=N/Nc2cc(N3CCOCC3)nc(OCCc3ccc(NC(=O)CCCCCCCCCCC(=O)N[C@H](C(=O)N4C[C@H](O)C[C@H]4C(=O)NCc4ccc(-c5scnc5C)cc4)C(C)(C)C)cc3)n2)c1	48
2) Cc1cccc(/C=N/Nc2cc(N3CCOCC3)nc(OCCNC(=O)CCCCCCCCC(=O)N[C@H](C(=O)N3C[C@H](O)C[C@H]3C(=O)NCc3ccc(-c4scnc4C)cc3)C(C)(C)C)n2)c1	32
3) Cc1cccc(/C=N/Nc2cc(N3CCOCC3)nc(OCCNC(=O)CCCCC(=O)N[C@H](C(=O)N3C[C@H](O)C[C@H]3C(=O)NCc3ccc(-c4scnc4C)cc3)C(C)(C)C)n2)c1	0
4) Cc1cccc(/C=N/Nc2cc(N3CCOCC3)nc(OCCNC(=O)CCC(=O)N[C@H](C(=O)N3C[C@H](O)C[C@H]3C(=O)NCc3ccc(-c4scnc4C)cc3)C(C)(C)C)n2)c1	0
5) Cc1cccc(/C=N/Nc2cc(N3CCOCC3)nc(OCCc3ccc(NC(=O)CCCCCC(=O)N[C@H](C(=O)N4C[C@H](O)C[C@H]4C(=O)NCc4ccc(-c5scnc5C)cc4)C(C)(C)C)cc3)n2)c1	90

Q. Request the reported Activity associated with `Cc1cccc(/C=N/Nc2cc(N3CCOCC3)nc(OCCNC(=O)CCCCCCCCCC(=O)N[C@H](C(=O)N3C[C@H](O)C[C@H]3C(=O)NCc3ccc(-c4scnc4C)cc3)C(C)(C)C)n2)c1`
A. 72

Q. Request the reported Activity associated with `Cc1cccc(/C=N/Nc2cc(N3CCOCC3)nc(OCCNC(=O)CCCCCCCC(=O)N[C@H](C(=O)N3C[C@H](O)C[C@H]3C(=O)NCc3ccc(-c4scnc4C)cc3)C(C)(C)C)n2)c1`
A. 30

###

Item-by-item account of Activity
Biological target: von Hippel-Lindau disease tumor suppressor/1-phosphatidylinositol 3-phosphate 5-kinase (Homo sapiens) (UniProt Q9Y2I7+P40337)
Assay: PROTAC activity at VHL/PIKfyve in human VCaP cells assessed as induction of PIKfyve degradation at 1 uM incubated for 24 hrs by immunoblot analysis
Type: cell-based
The figure you give is taken to be in %; do not add the unit.

1) Cc1cccc(/C=N/Nc2cc(N3CCOCC3)nc(OCCNC(=O)CCCCCCCCCC(=O)N[C@H](C(=O)N3C[C@H](O)C[C@H]3C(=O)NCc3ccc(-c4scnc4C)cc3)C(C)(C)C)n2)c1	32

Q. Request the reported Activity associated with `Cc1cccc(/C=N/Nc2cc(N3CCOCC3)nc(OCCc3ccc(NC(=O)CCCCCCC(=O)N[C@H](C(=O)N4C[C@H](O)C[C@H]4C(=O)NCc4ccc(-c5scnc5C)cc4)C(C)(C)C)cc3)n2)c1`
A. 19

Q. Request the reported Activity associated with `Cc1cccc(/C=N/Nc2cc(N3CCOCC3)nc(OCCNC(=O)CCCC(=O)N[C@H](C(=O)N3C[C@H](O)C[C@H]3C(=O)NCc3ccc(-c4scnc4C)cc3)C(C)(C)C)n2)c1`
A. 0

Q. Request the reported Activity associated with `Cc1cccc(/C=N/Nc2cc(N3CCOCC3)nc(OCCc3ccc(NC(=O)CCCCC(=O)N[C@H](C(=O)N4C[C@@H](O)C[C@H]4C(=O)NCc4ccc(-c5scnc5C)cc4)C(C)(C)C)cc3)n2)c1`
A. 0

Q. Request the reported Activity associated with `Cc1cccc(/C=N/Nc2cc(N3CCOCC3)nc(OCCc3ccc(NC(=O)CCC(=O)N[C@H](C(=O)N4C[C@H](O)C[C@H]4C(=O)NCc4ccc(-c5scnc5C)cc4)C(C)(C)C)cc3)n2)c1`
A. 8

###

Target: von Hippel-Lindau disease tumor suppressor/1-phosphatidylinositol 3-phosphate 5-kinase (Homo sapiens) (UniProt Q9Y2I7+P40337)
Assay: PROTAC activity at VHL/PIKfyve in human VCaP cells assessed as induction of PIKfyve degradation at 0.1 uM incubated for 24 hrs by immunoblot analysis
Assay type: cell-based
readout-label: Activity (%)
The figure you give is taken to be in %; do not add the unit.

1. Cc1cccc(/C=N/Nc2cc(N3CCOCC3)nc(OCCc3ccc(NC(=O)CCCC(=O)N[C@H](C(=O)N4C[C@H](O)C[C@H]4C(=O)NCc4ccc(-c5scnc5C)cc4)C(C)(C)C)cc3)n2)c1	0
2. Cc1cccc(/C=N/Nc2cc(N3CCOCC3)nc(OCCc3ccc(NC(=O)CCCCC(=O)N[C@H](C(=O)N4C[C@@H](O)C[C@H]4C(=O)NCc4ccc(-c5scnc5C)cc4)C(C)(C)C)cc3)n2)c1	0
3. Cc1cccc(/C=N/Nc2cc(N3CCOCC3)nc(OCCc3ccc(NC(=O)CCCCCCCC(=O)N[C@H](C(=O)N4C[C@H](O)C[C@H]4C(=O)NCc4ccc(-c5scnc5C)cc4)C(C)(C)C)cc3)n2)c1	84

Please turn your attention to the following entry.
Q. Request the reported Activity associated with `Cc1cccc(/C=N/Nc2cc(N3CCOCC3)nc(OCCc3ccc(NC(=O)CCCCCCCCC(=O)N[C@H](C(=O)N4C[C@H](O)C[C@H]4C(=O)NCc4ccc(-c5scnc5C)cc4)C(C)(C)C)cc3)n2)c1`
A. 81

###

Molecular target: von Hippel-Lindau disease tumor suppressor/1-phosphatidylinositol 3-phosphate 5-kinase (Homo sapiens) (UniProt Q9Y2I7+P40337)
Assay: PROTAC activity at VHL/PIKfyve in human VCaP cells assessed as induction of PIKfyve degradation at 0.1 uM incubated for 24 hrs by immunoblot analysis
Type: cell-based
Item-by-item account of Activity
Include the unit right after the number.

In the examples that follow, each entry is paired with its recorded Activity.
1. Cc1cccc(/C=N/Nc2cc(N3CCOCC3)nc(OCCc3ccc(NC(=O)CCCCCCCCCC(=O)N[C@H](C(=O)N4C[C@H](O)C[C@H]4C(=O)NCc4ccc(-c5scnc5C)cc4)C(C)(C)C)cc3)n2)c1	64%
2. Cc1cccc(/C=N/Nc2cc(N3CCOCC3)nc(OCCc3ccc(NC(=O)CC(=O)N[C@H](C(=O)N4C[C@H](O)C[C@H]4C(=O)NCc4ccc(-c5scnc5C)cc4)C(C)(C)C)cc3)n2)c1	0%

Q. Request the reported Activity associated with `Cc1cccc(/C=N/Nc2cc(N3CCOCC3)nc(OCCNC(=O)CC(=O)N[C@H](C(=O)N3C[C@H](O)C[C@H]3C(=O)NCc3ccc(-c4scnc4C)cc3)C(C)(C)C)n2)c1`
A. 0%

###

Biological target: von Hippel-Lindau disease tumor suppressor/1-phosphatidylinositol 3-phosphate 5-kinase (Homo sapiens) (UniProt Q9Y2I7+P40337)
Test: PROTAC activity at VHL/PIKfyve in human VCaP cells assessed as induction of PIKfyve degradation at 1 uM incubated for 24 hrs by immunoblot analysis
Format: cell-based
readout-label: Activity (%)
The figure you give is taken to be in %; do not add the unit.

In the examples that follow, each entry is paired with its recorded Activity.
1) Cc1cccc(/C=N/Nc2cc(N3CCOCC3)nc(OCCNC(=O)CCCCCC(=O)N[C@H](C(=O)N3C[C@H](O)C[C@H]3C(=O)NCc3ccc(-c4scnc4C)cc3)C(C)(C)C)n2)c1	0
2) Cc1cccc(/C=N/Nc2cc(N3CCOCC3)nc(OCCc3ccc(NC(=O)CCCCCCCC(=O)N[C@H](C(=O)N4C[C@H](O)C[C@H]4C(=O)NCc4ccc(-c5scnc5C)cc4)C(C)(C)C)cc3)n2)c1	92

Q. Request the reported Activity associated with `Cc1cccc(/C=N/Nc2cc(N3CCOCC3)nc(OCCc3ccc(NC(=O)CCCCC(=O)N[C@H](C(=O)N4C[C@H](O)C[C@H]4C(=O)N[C@@H](C)c4ccc(-c5scnc5C)cc4)C(C)(C)C)cc3)n2)c1`
A. 44

Q. Request the reported Activity associated with `Cc1cccc(/C=N/Nc2cc(N3CCOCC3)nc(OCCc3ccc(NC(=O)CCCCC(=O)N[C@H](C(=O)N4C[C@H](O)C[C@H]4C(=O)NCc4ccc(-c5scnc5C)cc4)C(C)(C)C)cc3)n2)c1`
A. 91

Q. Request the reported Activity associated with `Cc1cccc(/C=N/Nc2cc(N3CCOCC3)nc(OCCNC(=O)CCCCCCCC(=O)N[C@H](C(=O)N3C[C@H](O)C[C@H]3C(=O)NCc3ccc(-c4scnc4C)cc3)C(C)(C)C)n2)c1`
A. 17

Q. Request the reported Activity associated with `Cc1cccc(/C=N/Nc2cc(N3CCOCC3)nc(OCCNC(=O)CCCCCCCCC(=O)N[C@H](C(=O)N3C[C@H](O)C[C@H]3C(=O)NCc3ccc(-c4scnc4C)cc3)C(C)(C)C)n2)c1`
A. 31

Q. Request the reported Activity associated with `Cc1cccc(/C=N/Nc2cc(N3CCOCC3)nc(OCCc3ccc(NC(=O)CCCCCCCCCC(=O)N[C@H](C(=O)N4C[C@H](O)C[C@H]4C(=O)NCc4ccc(-c5scnc5C)cc4)C(C)(C)C)cc3)n2)c1`
A. 41
